Entry source: paper PMC9301698

Assay: MTT cytotoxicity assay, leukemia
Format: cell-based, human
Settings: human, K562 cells (leukemia)
Property name: viability at 6.25 μg/mL (%)
One number for each entry, in %.

Input: Given the molecule CC(C)=CCc1c2c(c3occ(-c4ccc(O)cc4)c(=O)c3c1O)CC(C(C)(C)O)O2 (stereo not shown) , what is its reported viability at 6.25 μg/mL?
Output: 76.6

---

Test: MTT cytotoxicity assay, colorectal cancer
Type: cell-based, human
Conditions: human, SW480 cells (colorectal cancer)
Answer each item with its documented viability at 6.25 μg/mL.
Numbers only, in %.

C=C(C)C(O)Cc1c(O)c(CC=C(C)C)c2occ(-c3ccc(O)cc3)c(=O)c2c1O (stereo not shown)    94
COc1cccc2c1C(=O)c1c(O)c3c(c(O)c1C2=O)C[C@@](O)(C(=O)CO)C[C@@H]3O[C@H]1C[C@H](N)[C@H](O)[C@H](C)O1 [doxorubicin, reference compound]    80
CC(C)=CCc1c2c(c3occ(-c4ccc(O)cc4)c(=O)c3c1O)CC(C(C)(C)O)O2 (stereo not shown)    166

Input: Query: viability at 6.25 μg/mL; subject: CC(C)=CCc1c(O)c(CC=C(C)C)c2occ(-c3ccc(O)cc3)c(=O)c2c1O
Output: 118

---

Assay: MTT cytotoxicity assay, lung cancer
Type: cell-based, human
Conditions: human, A549 cells (lung cancer)
Please provide measured viability at 50 μg/mL for the entries that follow.
Answers are plain numbers, in %.

Provide each entry's viability at 50 μg/mL from the list below.
1. CC(C)=CCc1c2c(c3occ(-c4ccc(O)cc4)c(=O)c3c1O)CC(C(C)(C)O)O2 (centres unmarked)
2. COc1cccc2c1C(=O)c1c(O)c3c(c(O)c1C2=O)C[C@@](O)(C(=O)CO)C[C@@H]3O[C@H]1C[C@H](N)[C@H](O)[C@H](C)O1 [doxorubicin, reference compound]

Output:
[6.25, 52.8]

---

Assay: MTT cytotoxicity assay, colorectal cancer
Assay type: cell-based, human
Details: human, SW480 cells (colorectal cancer)
Property name: viability at 12.5 μg/mL (%)
Answers are plain numbers, in %.

Study these solved cases before continuing.
C=C(C)C(O)Cc1c(O)c(CC=C(C)C)c2occ(-c3ccc(O)cc3)c(=O)c2c1O (stereo not shown)    92.8
CC(C)=CCc1c2c(c3occ(-c4ccc(O)cc4)c(=O)c3c1O)CC(C(C)(C)O)O2 (stereo not shown)    142

Below is a list of compounds. For each, state its recorded viability at 12.5 μg/mL.
1. COc1cccc2c1C(=O)c1c(O)c3c(c(O)c1C2=O)C[C@@](O)(C(=O)CO)C[C@@H]3O[C@H]1C[C@H](N)[C@H](O)[C@H](C)O1 [doxorubicin, reference compound]
2. CC(C)=CCc1c(O)c(CC=C(C)C)c2occ(-c3ccc(O)cc3)c(=O)c2c1O

Output:
1. 73.9
2. 119

---

Assay: MTT cytotoxicity assay in mammalian cells
Type: cell-based
Settings: mouse, RAW 264.7 cells
Property name: viability at 24 h, 100 μg/mL
Please format your answer as a value with the unit trailing.

// worked examples, viability at 24 h, 100 μg/mL included
CC(C)=CCc1c2c(c3occ(-c4ccc(O)cc4)c(=O)c3c1O)CC(C(C)(C)O)O2 (stereo not drawn)    5.3%
COc1cccc2c1C(=O)c1c(O)c3c(c(O)c1C2=O)C[C@@](O)(C(=O)CO)C[C@@H]3O[C@H]1C[C@H](N)[C@H](O)[C@H](C)O1 [doxorubicin, reference compound]    5.96%

Now look at this one.
Input: Name the recorded viability at 24 h, 100 μg/mL for C=C(C)C(O)Cc1c(O)c(CC=C(C)C)c2occ(-c3ccc(O)cc3)c(=O)c2c1O (stereo not drawn) .
Output: 29.4%

---

Please go through the items and note down their viability at 12.5 μg/mL.
Assay: MTT cytotoxicity assay, leukemia
Format: cell-based, human
Details: human, K562 cells (leukemia)
Answers are plain numbers, in %.

COc1cccc2c1C(=O)c1c(O)c3c(c(O)c1C2=O)C[C@@](O)(C(=O)CO)C[C@@H]3O[C@H]1C[C@H](N)[C@H](O)[C@H](C)O1 [doxorubicin, reference compound]    70.3

Let us move to another entry and its viability at 12.5 μg/mL.
Input: Which viability at 12.5 μg/mL value belongs to CC(C)=CCc1c2c(c3occ(-c4ccc(O)cc4)c(=O)c3c1O)CC(C(C)(C)O)O2 (centres unmarked) [Compound 16, senegalensin] ?
Output: 28.8

---

Assay: MTT cytotoxicity assay, leukemia
Assay type: cell-based, human
Conditions: human, K562 cells (leukemia)
Hi there, I'd appreciate the recorded viability at 50 μg/mL for every entry that follows.
Give bare numbers, in %.

COc1cccc2c1C(=O)c1c(O)c3c(c(O)c1C2=O)C[C@@](O)(C(=O)CO)C[C@@H]3O[C@H]1C[C@H](N)[C@H](O)[C@H](C)O1 [doxorubicin, reference compound]    49.6

Now let's try a different one.
Input: For the molecule CC(C)=CCc1c2c(c3occ(-c4ccc(O)cc4)c(=O)c3c1O)CC(C(C)(C)O)O2 (centres unmarked) [Compound 16, senegalensin] , what viability at 50 μg/mL is on record?
Output: 10.2

---

Assay: MTT cytotoxicity assay in mammalian cells
Type: cell-based
Conditions: mouse, RAW 264.7 cells
For each entry below, report its viability at 24 h, 12.5 μg/mL value.
Give bare numbers, in %.

Sample records with viability at 24 h, 12.5 μg/mL:
CC(C)=CCc1c2c(c3occ(-c4ccc(O)cc4)c(=O)c3c1O)CC(C(C)(C)O)O2 (stereo not drawn)    139
COc1cccc2c1C(=O)c1c(O)c3c(c(O)c1C2=O)C[C@@](O)(C(=O)CO)C[C@@H]3O[C@H]1C[C@H](N)[C@H](O)[C@H](C)O1 [doxorubicin, reference compound]    5.35

--- query ---
Input: Quick check: viability at 24 h, 12.5 μg/mL of C=C(C)C(O)Cc1c(O)c(CC=C(C)C)c2occ(-c3ccc(O)cc3)c(=O)c2c1O (stereo not drawn) ?
Output: 100

---

Test: MTT cytotoxicity assay, lung cancer
Assay type: cell-based, human
Conditions: human, A549 cells (lung cancer)
Property name: viability at 100 μg/mL (%)
Answers are plain numbers, in %.

CC(C)=CCc1c2c(c3occ(-c4ccc(O)cc4)c(=O)c3c1O)CC(C(C)(C)O)O2 (centres unmarked)    4.53

// moving on: another record for viability at 100 μg/mL
Input: Field request: viability at 100 μg/mL | item: COc1cccc2c1C(=O)c1c(O)c3c(c(O)c1C2=O)C[C@@](O)(C(=O)CO)C[C@@H]3O[C@H]1C[C@H](N)[C@H](O)[C@H](C)O1 [doxorubicin, reference compound]
Output: 10.1

---

Experiment: MTT cytotoxicity assay in mammalian cells
Type: cell-based
Details: mouse, RAW 264.7 cells
Property name: viability at 24 h, 6.25 μg/mL (%)
One number for each entry, in %.

Consider the reported viability at 24 h, 6.25 μg/mL for these molecules:
COc1cccc2c1C(=O)c1c(O)c3c(c(O)c1C2=O)C[C@@](O)(C(=O)CO)C[C@@H]3O[C@H]1C[C@H](N)[C@H](O)[C@H](C)O1 [doxorubicin, reference compound]    4.62
CC(C)=CCc1c2c(c3occ(-c4ccc(O)cc4)c(=O)c3c1O)CC(C(C)(C)O)O2 (stereo not drawn) [Compound 16, senegalensin]    154

// next entry
Input: For C=C(C)C(O)Cc1c(O)c(CC=C(C)C)c2occ(-c3ccc(O)cc3)c(=O)c2c1O (stereo not drawn) [Compound 13, isoerysenegalensein E] , what is its reported viability at 24 h, 6.25 μg/mL?
Output: 103

---

Give viability at 25 μg/mL for every item shown.
Assay: MTT cytotoxicity assay, colorectal cancer
Format: cell-based, human
Conditions: human, SW480 cells (colorectal cancer)
Give bare numbers, in %.

CC(C)=CCc1c(O)c(CC=C(C)C)c2occ(-c3ccc(O)cc3)c(=O)c2c1O    117
CC(C)=CCc1c2c(c3occ(-c4ccc(O)cc4)c(=O)c3c1O)CC(C(C)(C)O)O2 (stereo not shown)    122
C=C(C)C(O)Cc1c(O)c(CC=C(C)C)c2occ(-c3ccc(O)cc3)c(=O)c2c1O (stereo not shown)    90.4

Consider now this further molecule.
Input: Please give the measured viability at 25 μg/mL for this molecule: COc1cccc2c1C(=O)c1c(O)c3c(c(O)c1C2=O)C[C@@](O)(C(=O)CO)C[C@@H]3O[C@H]1C[C@H](N)[C@H](O)[C@H](C)O1 [doxorubicin, reference compound]
Output: 60.2

---

Assay: cytotoxicity screening, summary over cell lines
Type: cell-based
Details: mouse, human, RAW 264.7 and SW480 cells
Property name: viability

CC(C)=CCc1c(O)c(CC=C(C)C)c2occ(-c3ccc(O)cc3)c(=O)c2c1O    5.66 to 77%

Input: Quick one: viability of C=C(C)C(O)Cc1c(O)c(CC=C(C)C)c2occ(-c3ccc(O)cc3)c(=O)c2c1O (centres unmarked) ?
Output: 5.66 to 77%
